# Tested on: BT-474 Tam1
# procedure text: relative IC50 (midpoint of fitted logistic curve, plateau may be below 50% inhibition; CellTiter-Glo viability); higher = less potent
# condition info: 4-OH-tamoxifen in medium 1 µM; 72 h
Where a name gives a salt, the structure may show the parent alone.
readout label: relative IC50 (µM)

[
  {
    "compound": "CN(C)C/C=C/C(=O)Nc1cc2c(Nc3ccc(F)c(Cl)c3)ncnc2cc1O[C@H]1CCOC1",
    "relative IC50, µM": 0.0124
  }
]

[A] O=C(c1ccc(OCCN2CCCCC2)cc1)c1c(-c2ccc(O)cc2)sc2cc(O)ccc12 [Raloxifene HCl]
[B] Cn1c(=O)n(-c2ccc(C(C)(C)C#N)cc2)c2c3cc(-c4cnc5ccccc5c4)ccc3ncc21
stdin: Lab log: flag the item ( A or B ) with the smaller relative IC50 figure. Mark your selection by writing its label.
stdout: B

[1] COC(=O)C[C@](O)(CCCC(C)(C)O)C(=O)O[C@@H]1C(OC)=C[C@]23CCCN2CCc2cc4c(cc2[C@H]13)OCO4
[2] COc1ccc(S(=O)(=O)Nc2cccnc2Nc2ccc(O)cc2)cc1
stdin: Lab log: flag the item ( 1 or 2 ) with the smaller relative IC50 figure. Mark your selection by writing its label.
stdout: 2

[P] c1ccc2c(CCNc3ccc(Nc4ccncc4)cc3)c[nH]c2c1
[Q] CCNC(=O)c1noc(-c2cc(C(C)C)c(O)cc2O)c1-c1ccc(CN2CCOCC2)cc1
[R] OC[C@H]1O[C@@H](n2cnc3c2N=CNC[C@H]3O)C[C@@H]1O
[S] COc1cc(F)c(F)c(Nc2ccc(I)cc2F)c1NS(=O)(=O)C1(C[C@H](O)CO)CC1 [Refametinib (RDEA119)]
stdin: Order the records so the highest relative IC50 appears first and the lowest last. Write the labels, ordered according to the request.
stdout: P, R, S, Q
